Target: Cytochrome P450 3A4 (Homo sapiens)
Experiment: Cytochrome panel assay with activity outcomes; note: % is set by controls: 0 for no effect and ±100 for the full control effect
Settings: recombinant CYP, pro-luciferin dealkylation, luminescence, p450-cyp3a4; series mostly up to 57.1 µM
The campaign covered roughly 16,000 compounds. About 5,100 (32%) were called active. Roughly 25% stayed inconclusive and do not appear here. The list shows a part of the results.
endpoint: activity, negative = inhibition

# annotated cases, reported activity, negative = inhibition shown
Endpoint output: activity, negative = inhibition of Cn1c(O)c(C(=N)COc2ccccc2)c(=O)n(C)c1=O . Value?
inactive

Next: COc1cc(CCN)ccc1O
inactive

Next: NS(=O)(=O)c1ccc(-c2ccc([As](=O)(O)O)cc2)cc1
-4.52% [at 11.4 µM] (inactive)

Next: O=C(O)CS(=O)(=O)C(c1ccccc1)c1ccccc1
2.64% [at 11.4 µM] (inactive)

Next: N#CCCN
inactive

Switching to the query record.
Endpoint output: activity, negative = inhibition of C=C1CC[C@H](O)C/C1=C/C=C1\CCC[C@]2(C)[C@H]1CC[C@H]2[C@@H](C)CCCC(C)C . Value?
inactive
